# Tested on: 92.1 uveal melanoma cell line (heterozygous GNAQ Q209L)
# method-description: Cell proliferation assay (resazurin cell viability), 92.1 cell line
# Format: cell-based
# experimental-conditions: 92.1 cell line, replicate 1; read-out: GI50 92.1 Rep. 1
Starred links: 1 amine or outer side, 2 acyl side, 3 side chain; linkers in the order of their positions; H or OH if unused. Positions of bridges follow the written chain, without caps; N, C: chain ends. Non-standard residues stand in square brackets, D forms with d. Residues, ends and D or L forms follow the SMILES beside them. *: point of attachment. Leu(3R-O(AcLeu(3R-OH))) = CC(=O)N[C@H](C(=O)O[C@H](C(C)C)[C@H](N)C(=O)O)[C@H](O)C(C)C; Leu(3R-OH,Nα-propionyl) = CCC(=O)N[C@H](C(=O)*)[C@H](O)C(C)C; X1 = CC(C)[C@@H](O[*:3])[C@H](N[*:1])C(=O)[*:2]; NMeT = CN[C@H](C(=O)O)[C@@H](C)O; dPhLac = O=C(O)[C@H](O)Cc1ccccc1; NMeA = CN[C@@H](C)C(=O)O; NMeDha = C=C(NC)C(=O)O
experimental-readout: GI50 (nM)
Just the number please, in nM, no unit attached.

Quick check: GI50 of CCC(=O)N[C@H](C(=O)O[C@H](C(C)C)[C@@H]1NC(=O)[C@H](C)N(C)C(=O)[C@H](C)NC(=O)[C@H](C)N(C)C(=O)[C@@H](Cc2ccccc2)OC(=O)[C@@H](NC(C)=O)[C@@H](C(C)C)OC(=O)[C@H]([C@@H](C)OC)N(C)C1=O)[C@H](O)C(C)C [Compound 10] (Ac-[X1][dPhLac][NMeA]A[NMeA][X1](Leu(3R-OH,Nα-propionyl))[NMeT](Me); ester 1-C) ?
760

Also C=C1C(=O)N[C@@H](C)C(=O)N(C)[C@@H](C)C(=O)N[C@@H]([C@H](OC(=O)[C@@H](NC(C)=O)[C@H](O)C(C)C)C(C)C)C(=O)N(C)[C@@H]([C@@H](C)OC)C(=O)O[C@H](C)[C@H](NC(C)=O)C(=O)O[C@H](Cc2ccccc2)C(=O)N1C [Compound 13] (Ac-T[dPhLac][NMeDha]A[NMeA][Leu(3R-O(AcLeu(3R-OH)))][NMeT](Me); ester 1-C) , if possible.
10.1

----------
# System: A375 skin melanoma cell line (homozygous BRAF V600E)
# method-description: Cell proliferation assay (resazurin cell viability), A375 cell line
# Assay type: cell-based
# experimental-conditions: A375 (GNAQ/11 wild type); 96 hours of treatment; read-out: GI50 by cell line, A375
# Protocol: Cell Proliferation Assays with Chromodepsins (compounds (A1) and 2-15): Cell line descriptions: 92.1—uveal melanoma cell line, derived from primary tumor, harboring heterozygous GNAQ Q209L mutation. Purchased from Sigma Aldrich. […] Cells were cultured in 96-well plates in a total volume of 100 μL at 37° C., 5% CO2 and 95% relative humidity. […] Cell viability was measured by addition of 10 ul of resazurin per well after 96 hours of treatment. Results were analyzed and plotted using GraphPad Prism 9.0.1.
Starred links: 1 amine or outer side, 2 acyl side, 3 side chain; linkers in the order of their positions; H or OH if unused. Positions of bridges follow the written chain, without caps; N, C: chain ends. Non-standard residues stand in square brackets, D forms with d. Residues, ends and D or L forms follow the SMILES beside them. *: point of attachment. Leu(3R-OH,Nα-propionyl) = CCC(=O)N[C@H](C(=O)*)[C@H](O)C(C)C; X1 = CC(C)[C@@H](O[*:3])[C@H](N[*:1])C(=O)[*:2]; X5 = CSC[C@@H](O[*:3])[C@H](N[*:1])C(=O)[*:2]; X4 = CCC(=O)N[C@H](C(=O)*)[C@H](O)CSC; NMeT = CN[C@H](C(=O)O)[C@@H](C)O; dPhLac = O=C(O)[C@H](O)Cc1ccccc1; NMeA = CN[C@@H](C)C(=O)O; NMeDha = C=C(NC)C(=O)O; Propionyl = CCC(=O)*
experimental-readout: GI50

Item C=C1C(=O)N[C@@H](C)C(=O)N(C)[C@@H](C)C(=O)N[C@@H]([C@H](OC(=O)[C@@H](NC(=O)CC)[C@H](O)C(C)C)C(C)C)C(=O)N(C)[C@@H]([C@@H](C)OC)C(=O)O[C@H](CSC)[C@H](NC(C)=O)C(=O)O[C@H](Cc2ccccc2)C(=O)N1C [Compound 2] (Ac-[X5][dPhLac][NMeDha]A[NMeA][X1](Leu(3R-OH,Nα-propionyl))[NMeT](Me); ester 1-C) with A375 skin melanoma cell line (homozygous BRAF V600E) - GI50?
> 260 nM

Also C=C1C(=O)N[C@@H](C)C(=O)N(C)[C@@H](C)C(=O)N[C@@H]([C@H](OC(=O)[C@@H](NC(=O)CC)[C@H](O)C(C)C)C(C)C)C(=O)N(C)[C@@H]([C@@H](C)OC)C(=O)O[C@H](C(C)C)[C@H](NC(=O)CC)C(=O)O[C@H](Cc2ccccc2)C(=O)N1C [Compound 9] (Propionyl-[X1][dPhLac][NMeDha]A[NMeA][X1](Leu(3R-OH,Nα-propionyl))[NMeT](Me); ester 1-C) , if possible.
> 260 nM

Also C=C1C(=O)N[C@@H](C)C(=O)N(C)[C@@H](C)C(=O)N[C@@H]([C@@H](CSC)OC(=O)[C@@H](NC(=O)CC)[C@H](O)C(C)C)C(=O)N(C)[C@@H]([C@@H](C)OC)C(=O)O[C@H](C(C)C)[C@H](NC(C)=O)C(=O)O[C@H](Cc2ccccc2)C(=O)N1C [Compound 3] (Ac-[X1][dPhLac][NMeDha]A[NMeA][X5](Leu(3R-OH,Nα-propionyl))[NMeT](Me); ester 1-C) , if possible.
> 260 nM

Also CCC(=O)N[C@H](C(=O)O[C@H](C(C)C)[C@@H]1NC(=O)[C@H](C)N(C)C(=O)[C@H](C)NC(=O)[C@H](C)N(C)C(=O)[C@@H](Cc2ccccc2)OC(=O)[C@@H](NC(C)=O)[C@@H](C(C)C)OC(=O)[C@H]([C@@H](C)OC)N(C)C1=O)[C@H](O)C(C)C [Compound 10] (Ac-[X1][dPhLac][NMeA]A[NMeA][X1](Leu(3R-OH,Nα-propionyl))[NMeT](Me); ester 1-C) , if possible.
> 10000 nM

Also C=C1C(=O)N[C@@H](C)C(=O)N(C)[C@@H](C)C(=O)N[C@@H]([C@H](OC(=O)[C@@H](NC(=O)CC)[C@H](O)CSC)C(C)C)C(=O)N(C)[C@@H]([C@@H](C)OC)C(=O)O[C@H](C(C)C)[C@H](NC(C)=O)C(=O)O[C@H](Cc2ccccc2)C(=O)N1C [Compound 4] (Ac-[X1][dPhLac][NMeDha]A[NMeA][X1](X4)[NMeT](Me); ester 1-C) , if possible.
> 260 nM

----------
# Test system: A375 skin melanoma cell line (homozygous BRAF V600E)
# method-description: Cell proliferation assay (resazurin cell viability), A375 cell line
# Format: cell-based
# experimental-conditions: A375 (GNAQ/11 wild type); 96 hours of treatment; read-out: GI50 by cell line, A375
Starred links: 1 amine or outer side, 2 acyl side, 3 side chain; linkers in the order of their positions; H or OH if unused. Positions of bridges follow the written chain, without caps; N, C: chain ends. Non-standard residues stand in square brackets, D forms with d. Residues, ends and D or L forms follow the SMILES beside them. ξ: configuration not given here. *: point of attachment. Leu(3R-O(AcLeu(3R-OH))) = CC(=O)N[C@H](C(=O)O[C@H](C(C)C)[C@H](N)C(=O)O)[C@H](O)C(C)C; Leu(3R-OH,Nα-propionyl) = CCC(=O)N[C@H](C(=O)*)[C@H](O)C(C)C; X1 = CC(C)[C@@H](O[*:3])[C@H](N[*:1])C(=O)[*:2]; X3 = CC(C)C(O[*:3])C(N[*:1])C(=O)[*:2]; ξLeu(3ξ-OH) = CC(C)C(O)C(N)C(=O)O; NMeT = CN[CH](C(=O)O)[CH](C)O; dPhLac = O=C(O)[C@H](O)Cc1ccccc1; PhLac = O=C(O)[CH](O)Cc1ccccc1; NMeA = CN[CH](C)C(=O)O; NMeDha = C=C(NC)C(=O)O
Provide the reported GI50 of each item.

Quick check: GI50 of C=C1C(=O)NC(C)C(=O)N(C)C(C)C(=O)NC(C(O)C(C)C)C(=O)N(C)C(C(C)OC)C(=O)OC(C(C)C)C(NC(C)=O)C(=O)OC(Cc2ccccc2)C(=O)N1C (stereo not drawn) [Compound 12] (Ac-[X3][PhLac][NMeDha]A[NMeA][ξLeu(3ξ-OH)][NMeT](Me); ester 1-C; configuration not given here) ?
> 10000 nM

Also C=C1C(=O)N[C@@H](C)C(=O)N(C)[C@@H](C)C(=O)N[C@@H]([C@H](OC(=O)[C@@H](NC(=O)CC)[C@H](O)C(C)C)C(C)C)C(=O)N(C)[C@@H]([C@@H](C)OC)C(=O)O[C@H](C)[C@H](NC(C)=O)C(=O)O[C@H](Cc2ccccc2)C(=O)N1C [Compound 14] (Ac-T[dPhLac][NMeDha]A[NMeA][X1](Leu(3R-OH,Nα-propionyl))[NMeT](Me); ester 1-C) , if possible.
> 260 nM

Also C=C1C(=O)N[C@@H](C)C(=O)N(C)[C@@H](C)C(=O)N[C@@H]([C@H](OC(=O)[C@@H](NC(C)=O)[C@H](O)C(C)C)C(C)C)C(=O)N(C)[C@@H]([C@@H](C)OC)C(=O)O[C@H](C(C)C)[C@H](NC(C)=O)C(=O)O[C@H](Cc2ccccc2)C(=O)N1C [Compound 8] (Ac-[X1][dPhLac][NMeDha]A[NMeA][Leu(3R-O(AcLeu(3R-OH)))][NMeT](Me); ester 1-C) , if possible.
> 260 nM
